# Tested on: EKVX
# method-summary: NCI tumour cell line growth inhibition, 48 h
Calls of active or inactive are those of the source. No stated cut-off is given here; in the data, active = GI50 up to about 1.1 µM and inactive = higher.
endpoint-label: GI50

Query: Determine its reported GI50: CSc1nc(NC2OC(COC(C)=O)C(OC(C)=O)C(OC(C)=O)C2OC(C)=O)c(/N=C(\C)C(C)=O)c(=O)n1C (stereo not given)
Reply: > 100 µM (inactive)

Query: Determine its reported GI50: `O=C1Nc2c(Cl)cc(Cl)cc2/C1=N/NC(=O)c1ccccc1O`
Reply: 13.2 µM (inactive)

Query: Determine its reported GI50: `CN(N=O)N1C(=O)SCC(c2ccccc2)(c2ccccc2)C1=O`
Reply: 34.7 µM (inactive)

Query: Determine its reported GI50: `CCCNC(=S)N/N=C/c1cccc(C)n1`
Reply: 30.9 µM (inactive)

Query: Determine its reported GI50: CC(C)N(C(=O)C12C3C4C1C1C2C3C41C(N)=O)C(C)C (stereo not given)
Reply: > 100 µM (inactive)

Query: Determine its reported GI50: C=C(CCOC)CCC1CCCCC/C1=N\N(C)C (stereo not given)
Reply: > 100 µM (inactive)

Query: Determine its reported GI50: COC(=O)C1CC(C(=O)OC)c2nc3cc(C)ccc3nc21 (stereo not given)
Reply: > 100 µM (inactive)

Query: Determine its reported GI50: CN(C(=O)C12C3C4C1C1C2C3C41C(N)=O)C(C)(C)C (stereo not given)
Reply: > 100 µM (inactive)

Query: Determine its reported GI50: FC(F)(F)c1ccc2c(c1)nc1n2C(c2c(Cl)cccc2Cl)SC1 (stereo not given)
Reply: 14.2 µM (inactive)

Query: Determine its reported GI50: `C=CC1=C(C)c2cc3[nH]c(c4c5nc(cc6[nH]c(cc1n2)c(C=O)c6CC)C(C)=C5C(=O)[C@@H]4C(=O)OC)[C@@H](CCC(=O)O)[C@@H]3C`
Reply: > 100 µM (inactive)
